Below is a list of entries, each paired with its recorded amyloid nucleation score value.
protocol-summary: amyloid nucleation score (Sup35N fusion, yeast selection) (log enrichment); library NNK1; higher = more nucleation; inactive = no reads after selection;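 also: zero at mode of non-aggregating sequences after 7 days selection at 30°C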
reported-property: amyloid nucleation score

>>> df
               substance  measurement
 0     SFDKARRARGRSLAWML        0.072
 1  AYYSRNIIKPGKKVEVPKMG        -1.01
 2  KIFERRLSMYRSVSFLSRQC         0.15
 3  FKCLARFWYADYLRFVFARQ        0.297
 4  CCADPMHYTFHSSNLVFPLM        0.294
 5         LQLYQVFSVHYEC         3.08
 6                SLCGTS       -0.222
 7          FRVYFIVRVPYI         1.36
 8            ARWKKQWFYT        0.796
 9  LNNAGTFFLPEVFRLRWTNV        0.018
10             GLKIQPLCS        0.373
11  NGPLHSYYTVWGCMYCLLML         3.06
12       LWPEPVSRSIHSRSH        0.976
13  MKRASSLMINFMMPCNFYCG        0.532
14  LGKPVWVQEAKLDADNLWCV       -0.438
15  WGLSQSLCHSRNNLHNWISG        0.207
16  SCAYQGKLSIAAMLVSGFGC         1.16

* * *

protocol-summary: amyloid nucleation score (Sup35N fusion, yeast selection) (log enrichment); library NNK1; higher = more nucleation; inactive = no reads after selection
reported-property: amyloid nucleation score

       residue_sequence  measurement
0      VDEETMCSFLSLGKVY        0.474
1  LVKWGCQLSVEFVRFNTGFQ         1.74
2  YASCCTDCNWLCFFRRLREA         7.04
3  MSSNMLSEKWASGTEHVGVV       -0.657
4  ICSYTSIVYLFWDDLSLSTL          1.7
5  NAVTFLHIVLRENNHGRMHK         6.21
6  CVVLMMGVPAKAGLLLLHWS        0.297
7  LCFVRMRYLFESDCPRHRKH        0.384

* * *

protocol-summary: amyloid nucleation score (Sup35N fusion, yeast selection) (log enrichment); library NNK1; higher = more nucleation; inactive = no reads after selection
Kind request: treat 0.3 as inclusive, so amyloid nucleation score at 0.3 or higher is T, anything lower is F.

>>> print(df.to_string())
               substance  class_name
 0  RGRTRLKFLCLLYWWGKTKG           F
 1      IISDDNSGMWWVMFLV           F
 2  IILSAHVLSRTFLAFVSQKE           F
 3  VDGMGYDLIMCLYYNGLWAN           T
 4  TLNHRSLCFSSVDILWVWII           F
 5  SIYCGDTQDVVPIVSHLSNL           F
 6         VLGMCGTRYIDFF           T
 7  LLSYPIPDMYSIEATTKRRI           F
 8  IISAFISESTYDCGFASWVS           F
 9  NLYMANGDVMCSREGAEQCS           T
10  SIDTPYFALNRCALIHTSFT           T
11  WFSYYLLFRYNDNLSRAERS           T
12  LRVVYPGPSYAGASDLSSMR           F
13  TSWRAWVGAVKRSAFFYTYY           T
14  TSPDCKAAKSQGSKCRDRSC           F
15        GIFSNLEVGYKPKN           F
16  SWCHFVCLYPKHVFSVVSST           T
17  SIDRIRVSVHPLAFKIYLDV           T
18  HHALHAKAERLTPPMPPCKM           T
19        CVLVNVNNDQSWWR           T
20     RSFPSTFLLVLLQDSRC           T
21  VSKSFVSQARLFYIQGDHCL           T
22             YYPNPMQPW           F
23  SNISSHQEASWRAYRFSESV           F
24           TFAVLRNSGFM           T
25  NNMWSILTAAWDHVCSWRSS           T
26               PIIILFL           T
27           HSSDMCLSGLM           F
28  GIGMRGVQHSSCEVARYWGS           T
29  VDLLNGDWNRSLMKAKPVER           F
30  LSWYPCWVARSTMALDGYGV           F
31         GVQAVSSPTSVFK           T
32             RREVRCSQR           F
33    LIGQLIFRPVNGARKIPV           F
34  HCCFTGRKGYSRFAVLSCST           T
35  VRAFGYDGLHLVITCYHCRH           T
36  CRQGMTLAVREPGASTSVYN           T
37  GLDFCIVRACTKRYSWNQLG           T
38              RDSQMMNT           T
39   SYFKCMIILSRMLLVVLEI           F
40       EFEWNLFPICNTNMI           T
41   VFCLRLAYNAFREMSAHKC           T
42  HRYRGRNLLILCRNDDWCDF           T
43  MLLEFCKCGVGSIVWCQKFA           T
44  KWYGILNVVDDRRSIGRYDM           F
45     CSGNSSGVRCMVRSNRS           T
46               GSHSRGY           F
47    VHVLWLWQSMLLVHWSAV           T
48  FLVYGSSGFTAVLGPQCEEG           F
49  SLDVICPGVYLEMLGRESIL           F
50          FLICDGSDRQMF           T
51    QGLGALMVRSFSFYLFVW           F
52  WMKVARMYRMESRIMNRRQW           T
53  SSSADLAATARLFAGWEVLY           F
54  SAVVTRMGGGLKLRTWHEGN           T
55    HRNSCVPPGVAGIVTVCL           T
56      FCYFRVFVKSILDDWN           F
57            LYSDPKVCHN           T
58  SPTIVIKHRLNLESKRGYKV           F
59  GELWLAHLLLRSRVRTHRCP           T
60    CWVLNFVFGDCNLSCWGN           T
61                MSRRWV           F
62         SMWVWMHICEAMG           T
63  TIRVQHYCVDRGQESVLMGS           F
64           LNNLCNGMGGL           F
65      WCRDIPWMVLNTVGRY           F
